- ASSAY SUMMARY: AUC (0-infinity) in Sprague-Dawley rat at 5 mg/kg, po
- Type: ADME, organism-based
- Parameters: time infinity, dose 5 mg/kg, route oral
- ASSAY SETUP: plasma
ASSAY ENDPOINT: AUC(0-inf) (ng·h/mL)
Give a bare numeral; the unit ng·h/mL is implied.

Q: Report AUC(0-inf) for `COc1ccc(N(C(=O)Oc2c(C)cccc2C)c2ccnc(Nc3cc(OC)c(OCCCN4CCN(C)CC4)c(OC)c3)n2)c(OC)c1` please.
Result: 175

###

- System: Jurkat
- ASSAY SUMMARY: Antiproliferative activity against Jurkat cells
- Type: functional, cell-based
- ASSAY SETUP: Homo sapiens
ASSAY ENDPOINT: pIC50
Convention used: pIC50 is expressed as -log10 of the molar concentration.

Q: Report pIC50 for `COc1ccc(N(C(=O)Oc2c(C)cccc2C)c2ccnc(Nc3cc(OC)c(OCCCN4CCN(C)CC4)c(OC)c3)n2)c(OC)c1` please.
Result: 5.77
